I'd appreciate it if you could supply fraction unbound at 1 h, 10 µM values for the items below.
# ASSAY_METHOD_TEXT: Protein binding in human plasma at 10 uM incubated for 1 hr by LC-MS/MS analysis
# Type: ADME, cell-free
# CONDITION_SUMMARY: read-out: PPB (converted)
Please respond with just the number, no unit label.

[ask] # query: fraction unbound at 1 h, 10 µM of entry `CCCCN(Cc1ccc(C(=O)NO)cc1)C(=O)Nc1ccc(CN)cc1`
[reply] 0.53

[ask] Also need `O=C(NO)c1ccc(CN(CCCCO)C(=O)Nc2ccccc2)cc1` , thanks.
[reply] 0.52

[ask] Also need `NCc1ccc(NC(=O)N(CCCCO)Cc2ccc(C(=O)NO)cc2)cc1` , thanks.
[reply] 0.981

[ask] Also need CCCCN(Cc1ccc(C(=O)NO)cc1)C(=O)Nc1ccccc1 [NEXTURASTAT A] , thanks.
[reply] 0.11
